ASSAY TARGET: human p38 kinase alpha (Homo sapiens, UniProt Q16539)
Construct: The coding region of the human p38a cDNA was obtained by PCR-amplification from RNA isolated from the human monocyte cell line THP.1
Sequence (Q16539 whole entry): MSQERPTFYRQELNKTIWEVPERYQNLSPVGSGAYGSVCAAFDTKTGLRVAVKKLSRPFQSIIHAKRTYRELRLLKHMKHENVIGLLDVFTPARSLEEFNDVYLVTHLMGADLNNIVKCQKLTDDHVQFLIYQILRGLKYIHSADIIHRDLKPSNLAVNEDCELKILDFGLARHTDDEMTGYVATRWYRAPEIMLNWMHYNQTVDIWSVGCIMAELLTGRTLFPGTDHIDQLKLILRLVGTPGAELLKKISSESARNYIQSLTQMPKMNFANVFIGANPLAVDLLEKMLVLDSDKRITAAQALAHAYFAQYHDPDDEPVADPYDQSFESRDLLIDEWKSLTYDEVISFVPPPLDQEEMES
METHOD SUMMARY: p38 kinase in vitro assay (PHAS-I / 32P-ATP format or EGFRP / 33P-ATP format)
CONDITION DESCRIPTION: activated human p38 kinase alpha, 50 μM unlabeled ATP; two assay formats, table does not say which
Description: The ability of compounds to inhibit human p38 kinase alpha was evaluated using two in vitro assay methods. […] Following incubation, 20 μl of reaction mixture was transferred to a high capacity streptavidin coated filter plate (SAM-streptavidin-matrix, Promega) prewetted with phosphate buffered saline. […] The plates were sealed and counted. […]
pIC50: −log10 of the molar value. Where a name gives a salt, the structure may show the parent alone.
READOUT NAME: pIC50

CC(C)c1nnc2ccc(Cc3ccc(F)cc3)cn12
5.60
OCC(O)c1ccc(-c2nnc3ccc(Sc4ccc(F)cc4F)cn23)cc1 (racemic) [Example 31, hydrochloride]
8.28

A. COC(=O)c1cccc(-c2nnc3ccc(C(=O)c4ccc(F)cc4F)cn23)c1
B. Fc1ccc(Sc2ccc3nnc(-c4c(F)cccc4F)n3c2)c(F)c1
C. Cc1ccc(C(N)=O)cc1-c1nnc2ccc(Sc3ccc(F)cc3F)cn12
D. CC(C)(C)c1nnc2n1CC(c1ocnc1-c1cc(F)c(F)cc1F)CC2 (stereo not drawn)
E. CC(C)c1nnc2ccc(C(=O)Cc3ccc(F)cc3F)cn12
// ranking: key=pIC50, reverse=True In plain terms: list the labels in the order you were asked to.
B, C, D, E, A

====

ASSAY TARGET: human p38 kinase alpha (Homo sapiens, UniProt Q16539)
Construct: The coding region of the human p38a cDNA was obtained by PCR-amplification from RNA isolated from the human monocyte cell line THP.1
METHOD SUMMARY: p38 kinase in vitro assay (PHAS-I / 32P-ATP format or EGFRP / 33P-ATP format)
CONDITION DESCRIPTION: activated human p38 kinase alpha, 50 μM unlabeled ATP; two assay formats, table does not say which
Structures can show the parent of a compound that is named as a salt.
READOUT NAME: IC50 (µM)

Illustrative cases are given below, each with its answer.
CC(C)C(=O)c1ccc2nnc(C(C)C)n2c1
99.1
CC(C)c1nnc2ccc(Cc3ccc(Cl)nc3)cn12
53.3
C=CCC(C)(C)c1nnc2ccc(Sc3ccc(F)cc3F)cn12 [33 (step 2), hydrochloride]
0.0163

P. Cc1ccc(C(=O)O)cc1-c1nnc2ccc(Sc3ccc(F)cc3F)cn12 [41 (step 4), hydrochloride]
Q. Cc1cc(CNCCO)ccc1-c1nnc2ccc(Sc3ccc(F)cc3F)cn12 [Example 45, dihydrochloride]
R. OCC(O)c1ccc(-c2nnc3ccc(Cc4ccc(F)cc4F)cn23)cc1 (stereo not drawn) [Example 62, trifluoroacetate]
S. CC(C)c1nnc2cc(Cl)c(Sc3ccc(F)cc3F)c(Br)n12
T. COC(=O)c1ccc(C)c(-c2nnc3ccc(/C=C/c4ccc(F)cc4F)cn23)c1
Order the items by recorded IC50; the first position goes to the largest value. # list labels per requested ordering
S, P, R, Q, T
(S: 6.08 µM, P: 2.92 µM, R: 0.443 µM, Q: 0.0333 µM, T: 0.0173 µM)

====

ASSAY TARGET: human p38 kinase alpha (Homo sapiens)
Construct: The coding region of the human p38a cDNA was obtained by PCR-amplification from RNA isolated from the human monocyte cell line THP.1
METHOD SUMMARY: p38 kinase in vitro assay (PHAS-I / 32P-ATP format or EGFRP / 33P-ATP format)
CONDITION DESCRIPTION: activated human p38 kinase alpha, 50 μM unlabeled ATP; two assay formats, table does not say which
pIC50: −log10 of the molar value.
READOUT NAME: pIC50

a. CC(C)(C)c1nnc2ccc(Sc3c(Cl)cccc3Cl)cn12
b. CC(C)c1nnc2ccc([C@@H]3C[C@@H]3c3ccc(F)cc3F)cn12 (racemic)
I'd appreciate it if you could identify which of a and b has the greater pIC50. Give the chosen item's label as your response.
a
(a: 7.26, b: 4.77)

====

ASSAY TARGET: human p38 kinase alpha (Homo sapiens)
Construct: The coding region of the human p38a cDNA was obtained by PCR-amplification from RNA isolated from the human monocyte cell line THP.1
METHOD SUMMARY: p38 kinase in vitro assay (PHAS-I / 32P-ATP format or EGFRP / 33P-ATP format)
CONDITION DESCRIPTION: activated human p38 kinase alpha, 50 μM unlabeled ATP; two assay formats, table does not say which
pIC50: −log10 of the molar value.
READOUT NAME: pIC50

CC(C)(C)c1nnc2ccc(Cc3ccc(Cl)nc3)cn12
4.67

P. Cc1ccc(C(=O)NCC(N)=O)cc1-c1nnc2ccc(Sc3ccc(F)cc3F)cn12
Q. CC(C)c1nnc2cc(Cl)c(Sc3ccc(F)cc3F)c(Cl)n12
Among P and Q , which shows a numerically higher pIC50 result? # reply format: chosen label
P

I. Cc1ccc(C(=O)O)cc1-c1nnc2ccc(CCc3ccc(F)cc3F)cn12
II. CC(C)(C)c1nnc2ccc(C(O)c3ccc(F)cc3F)cn12 (stereo not shown) [15 (step 1)]
III. CC(C)c1nnc2ccc(/C=C\c3ccc(F)cc3F)cn12
Thanks in advance: please rank these 3 entries by pIC50, highest to lowest. Hello, could you send the labels back in the order asked? Thank you.
II, III, I
(II: 6.50, III: 6.27, I: 5.57)

====

ASSAY TARGET: human p38 kinase alpha (Homo sapiens, UniProt Q16539)
Construct: The coding region of the human p38a cDNA was obtained by PCR-amplification from RNA isolated from the human monocyte cell line THP.1
METHOD SUMMARY: p38 kinase in vitro assay (PHAS-I / 32P-ATP format or EGFRP / 33P-ATP format)
CONDITION DESCRIPTION: activated human p38 kinase alpha, 50 μM unlabeled ATP; two assay formats, table does not say which
pIC50: −log10 of the molar value. Counter-ions that a name gives are not always drawn.
READOUT NAME: pIC50

a. CC(C)c1nnc2ccc(Cc3ccccc3F)cn12 [Example 67]
b. CC1(c2nnc3ccc(Sc4ccc(F)cc4F)cn23)CC1 [Example 46, hydrochloride]
c. CC(C)c1nnc2ccc(Sc3ccc(F)cc3C(F)(F)F)cn12 [Example 53, hydrochloride]
In a descending ranking, list each entry from above by its pIC50, from the largest value down to the smallest. Please respond by ranking the labels in the order requested.
b, a, c
(b: 7.60, a: 6.16, c: 4.30)

====

ASSAY TARGET: human p38 kinase alpha (Homo sapiens, UniProt Q16539)
Construct: The coding region of the human p38a cDNA was obtained by PCR-amplification from RNA isolated from the human monocyte cell line THP.1
METHOD SUMMARY: p38 kinase in vitro assay (PHAS-I / 32P-ATP format or EGFRP / 33P-ATP format)
CONDITION DESCRIPTION: activated human p38 kinase alpha, 50 μM unlabeled ATP; two assay formats, table does not say which
pIC50: −log10 of the molar value.
Measured pIC50 by item

CC(C)c1nnc2ccc(C(=O)Nc3ccc(F)cc3F)cn12 [Example 11]
< 4.00

Which value of pIC50 has been reported for NC(=O)c1cccc(-c2nnc3ccc(C(=O)c4ccc(F)cc4F)cn23)c1 [Example 30] in the records?
< 4.00

Item CC(C)c1nnc2ccc(Sc3ccc(F)cc3F)c(Cl)n12 [Example 36] has what recorded pIC50?
7.91

Would you kindly share the measured pIC50 for CC(=O)c1ccc2nnc(C(C)C)n2c1 [Example 4] ?
< 4.00
